src = patent US11286234B2

Target: FPR1 (Homo sapiens, UniProt P21462)
Construct: expressed in transfected cells
Sequence (P21462 1-350): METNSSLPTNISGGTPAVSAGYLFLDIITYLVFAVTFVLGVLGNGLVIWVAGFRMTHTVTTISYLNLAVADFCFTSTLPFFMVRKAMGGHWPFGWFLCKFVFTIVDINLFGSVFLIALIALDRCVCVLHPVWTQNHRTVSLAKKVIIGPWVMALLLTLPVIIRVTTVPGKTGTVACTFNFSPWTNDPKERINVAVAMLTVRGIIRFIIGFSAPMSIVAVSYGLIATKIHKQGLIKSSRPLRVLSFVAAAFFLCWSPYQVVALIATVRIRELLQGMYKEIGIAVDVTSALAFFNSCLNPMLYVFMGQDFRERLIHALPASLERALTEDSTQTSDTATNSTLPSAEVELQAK
Assay: Compound-induced calcium activity (FLIPR Tetra) in CHO-Gα16 cells stably expressing FPR1
Assay type: cell-based
Conditions: ratio of the EC50 for agonizing FPR2 to the EC50 for agonizing FPR1
Under this convention, 1 denotes Ratio FPR2:FPR1 (EC50) strictly below 3 and -1 denotes Ratio FPR2:FPR1 (EC50) at or above 3.

Some solved cases for reference:
Bench note: check whether COC(=O)C(CNC(=O)Nc1ccc(Br)cc1)CC(C)C (stereo not shown) shows Ratio FPR2:FPR1 (EC50) below 3 1

Identify whether the compound COC(=O)C(CNC(=O)CNC(=O)Nc1ccc(Br)cc1)CC(C)C (stereo not shown) records Ratio FPR2:FPR1 (EC50) below 3. 1

Confirm or reject: Ratio FPR2:FPR1 (EC50) of CC(C)CC(CCNC(=O)Nc1ccc(Br)cc1)S(=O)(=O)O (stereo not shown) lies strictly below 3 -1

Determine whether this compound shows Ratio FPR2:FPR1 (EC50) lower than 3 (ties excluded): CC(C)CC(CNC(=O)Nc1ccc(C(F)(F)F)cc1)C(=O)O (stereo not shown) -1

Dear reviewer, please state whether COC(=O)C(CNC(=O)Nc1ccc(Br)cc1F)CC(C)C (stereo not shown) has Ratio FPR2:FPR1 (EC50) strictly beneath 3. 1

Okay, now this compound:
hey, is Ratio FPR2:FPR1 (EC50) for CCCC(CNC(=O)Nc1ccc(Br)cc1)C(=O)O (stereo not shown) lower than 3 or not? -1

---

Molecular target: FPR1 (Homo sapiens, UniProt P21462)
Construct: expressed in transfected cells
Assay: Compound-induced calcium activity (FLIPR Tetra) in CHO-Gα16 cells stably expressing FPR1
Assay type: cell-based
Details: efficacy value in brackets; CHO-Gα16 cells stably expressing FPR1; read-out: FPR1 Ga16-CHO (% eff)
Cut-off 90% on Emax, inclusive. At or above means YES; below means NO.

Record excerpt, results attached:
Record CC(C)CC(CNC(=O)Nc1ccc(Br)cc1)C(=O)N(C)C (centres unmarked) ; criterion: Emax no lower than 90%. Met? NO

Identify whether the reported Emax of the following molecule is 90% or greater: CCCC(CNC(=O)Nc1ccc(Br)cc1)C(=O)O (centres unmarked) YES

Please check the record CC(C)C(CNC(=O)Nc1ccc(Br)cc1)C(=O)O (centres unmarked) and state if its Emax is at or above 90%. YES

Exam item: decide whether the reported Emax for CC(CNC(=O)Nc1ccc(Br)cc1)C(=O)O (centres unmarked) is at least 90%. NO

Assess whether reported Emax for O=C(Nc1ccc(Br)cc1)N[C@H]1CCCC[C@H]1C(=O)O (relative stereo) sits at 90% or higher. YES

Next:
Hi, just wondering whether CC(C)CC(CNC(=O)Nc1ccc(Br)cc1)C(=O)NCC(=O)OC(C)(C)C (centres unmarked) shows Emax of 90% or higher. YES

Determine whether measured Emax meets or exceeds 90% for CC(C)CC(CNC(=O)Nc1ccc(Br)cc1)C(=O)O (centres unmarked) YES

Does the reported Emax for COC(=O)C(CNC(=O)Nc1ccc(Br)cc1)CC(C)C (centres unmarked) fall at or above the 90% mark? NO

---

Target: FPR2 (Homo sapiens, UniProt P25090)
Construct: expressed in transfected cells
Sequence (P25090 1-351): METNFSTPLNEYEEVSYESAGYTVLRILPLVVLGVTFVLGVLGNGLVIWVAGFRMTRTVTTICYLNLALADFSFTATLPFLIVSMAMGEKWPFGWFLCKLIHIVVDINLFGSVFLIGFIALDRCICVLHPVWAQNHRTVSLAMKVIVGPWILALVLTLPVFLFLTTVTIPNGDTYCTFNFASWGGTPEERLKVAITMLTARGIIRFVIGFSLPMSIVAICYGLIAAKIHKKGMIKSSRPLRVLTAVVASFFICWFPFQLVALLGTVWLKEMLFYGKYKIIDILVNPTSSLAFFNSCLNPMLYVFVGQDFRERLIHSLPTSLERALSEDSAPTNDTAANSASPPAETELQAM
Experiment: Compound-induced calcium activity (FLIPR Tetra) in CHO-Gα16 cells stably expressing FPR2
Format: cell-based
Details: efficacy value in brackets, read-out: FPR2 Ga16-CHO (% eff)
readout_label: Emax (%)
Respond numerically; units are % and should not be typed.

Per the record, O=C(Nc1ccc(Br)cc1)N[C@H]1CCCC[C@H]1C(=O)O (relative stereo) has Emax of 102

The compound listed as CC(C)CC(CNC(=O)Nc1ccc(Br)cc1)C(N)=O (stereo not shown) shows Emax equal to 95

Entry CCCC(CNC(=O)Nc1ccc(Br)cc1)C(=O)O (stereo not shown) ; Emax = 83

# compound CC(C)CC(CNC(=O)Nc1ccc(Br)cc1)C(=O)O (stereo not shown) ; its Emax = 90

Per the record, CCC(CNC(=O)Nc1ccc(Br)cc1)C(=O)O (stereo not shown) has Emax of 71

Entry O=C(Nc1ccc(Br)cc1)N[C@@H]1CCCC[C@H]1C(=O)O (relative stereo) — recorded Emax = 98

More entries:
Noted for COC(=O)C(CNC(=O)Nc1ccc(C(F)(F)F)cc1)CC(C)C (stereo not shown) : its Emax reads 78

// Emax value for CC(C)CC(CNC(=O)Nc1ccc(Br)cc1F)C(=O)O (stereo not shown) : 94

Summary for this compound, O=C(Nc1ccc(Br)cc1)NC1CCCCCCC1C(=O)O (stereo not shown) : Emax is 97

O=C(NCC(Cc1ccccc1)C(=O)O)Nc1ccc(Br)cc1 (stereo not shown) has a reported Emax of 93

---

Molecular target: FPR1 (Homo sapiens)
Sequence (P21462 1-350): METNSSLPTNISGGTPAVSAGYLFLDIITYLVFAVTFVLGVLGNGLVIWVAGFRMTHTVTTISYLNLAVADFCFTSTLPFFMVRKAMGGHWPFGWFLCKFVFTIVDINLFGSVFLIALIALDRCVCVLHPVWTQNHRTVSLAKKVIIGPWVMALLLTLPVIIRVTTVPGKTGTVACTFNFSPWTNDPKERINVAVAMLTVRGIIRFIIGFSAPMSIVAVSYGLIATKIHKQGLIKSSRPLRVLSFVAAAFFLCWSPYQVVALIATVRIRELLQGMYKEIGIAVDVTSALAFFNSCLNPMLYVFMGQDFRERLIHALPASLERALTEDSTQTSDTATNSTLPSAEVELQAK
Assay: Compound-induced calcium activity (FLIPR Tetra) in CHO-Gα16 cells stably expressing FPR1
Settings: CHO-Gα16 cells stably expressing FPR1; calcium activity; tested 0.61 to 10,000 nM; read-out: FPR1 Ga16-CHO EC50
Description: CHO-Gα16 cells stably expressing FPR1 or FPR2 were cultured in: Ham's F12 nutrient media, 10% fetal bovine serum, 1% PSA (penicillin, streptomycin, amphotericin B antiobiotic/antimycotic), 400 μg/ml geneticin and 50 μg/ml hygromycin. In general, the day before the experiment, 18,000 cells/well were plated in a 384-well clear bottom poly-D-lysine coated plate. […] Results are expressed as EC50 (nM) and efficacy values.
pEC50: −log10 of the molar value.
Given measured pEC50, output y if it is greater than or equal to 7 and n if not.

Given the entry CC(CNC(=O)Nc1ccc(Br)cc1)C(=O)O (stereo not drawn) , answer whether its pEC50 meets or surpasses 7. n

---

Catalogue of EC50 values
Biological target: FPR2 (Homo sapiens, UniProt P25090)
Assay: Compound-induced calcium activity (FLIPR Tetra) in CHO-Gα16 cells stably expressing FPR2
Settings: calcium activity, tested 0.61 to 10,000 nM, read-out: FPR2 Ga16-CHO EC50
Only the number, expressed in nM, is required.

Observe how each entry below is paired with its result.
Looking up CC(C)CC(CNC(=O)CNC(=O)Nc1ccc(Br)cc1)C(=O)O (stereo not drawn) , I found its EC50 recorded as 1680

Per the record, CC(C)CC(CNC(=O)Nc1ccc(Br)cc1)C(=O)NCc1nnn[nH]1 (stereo not drawn) has EC50 of 130

Recorded EC50 (molecule COC(=O)C(CNC(=O)Nc1ccc(Br)cc1F)CC(C)C (stereo not drawn) ): 1530

Further cases:
// recorded EC50 for O=C(Nc1ccc(Br)cc1)N[C@H]1CCCC[C@H]1C(=O)O (relative stereo) : 48

Reported EC50 of CC(C)CC(CNC(=O)Nc1ccc(Cl)cc1)C(=O)O (stereo not drawn) : 3000

GET /value?item= CC(C)C(CNC(=O)Nc1ccc(Br)cc1)C(=O)O (stereo not drawn) &field=EC50 returns 2670

Value of measured EC50 for the entry CC(C)CC(CNC(=O)Nc1ccc(OC(F)(F)F)cc1)C(=O)O (stereo not drawn) : 8090

molecule CC(C)CC(CNC(=O)Nc1ccc(Br)cc1)C(=O)O (stereo not drawn) , EC50 observed: 1300
